Tested on: Enterococcus faecium
assay.protocol: Antibacterial activity against vancomycin-resistant VanA phenotype of Enterococcus faecium ATCC 51559 assessed as leakage of intracellular potassium ion at 10 uM measured for 10 mins by PBFI-AM dye-based spectrofluorometric analysis
Assay type: functional, organism-based
Active and inactive are the calls of the source. The rule behind the calls is not given here.
Labels: YES for active, NO for inactive

chemical.smiles: CN[C@H](CC(C)C)C(=O)N[C@H]1C(=O)N[C@@H](CC(N)=O)C(=O)N[C@H]2C(=O)N[C@H]3C(=O)N[C@H](C(=O)N[C@H](C(=O)NCCCN(C)C)c4cc(O)cc(O)c4-c4cc3ccc4O)[C@H](O)c3ccc(c(Cl)c3)Oc3cc2cc(c3O[C@@H]2O[C@H](CO)[C@@H](O)[C@H](O)[C@H]2O[C@H]2C[C@](C)(N)[C@H](O)[C@H](C)O2)Oc2ccc(cc2Cl)[C@H]1O
category: NO
--
chemical.smiles: CCCCCCCC[N+](C)(C)CCCNC(=O)[C@H]1NC(=O)[C@H]2NC(=O)[C@H](NC(=O)[C@@H]3NC(=O)[C@H](CC(N)=O)NC(=O)[C@H](NC(=O)[C@@H](CC(C)C)NC)[C@H](O)c4ccc(c(Cl)c4)Oc4cc3cc(c4O[C@@H]3O[C@H](CO)[C@@H](O)[C@H](O)[C@H]3O[C@H]3C[C@](C)(N)[C@H](O)[C@H](C)O3)Oc3ccc(cc3Cl)[C@H]2O)c2ccc(O)c(c2)-c2c(O)cc(O)cc21.O=C([O-])C(F)(F)F
category: YES
--
chemical.smiles: CCCCCCCCCCCCCC[N+](C)(C)CCCNC(C)=O
category: NO

====

Tested on: Enterococcus faecium
assay.protocol: Antibacterial activity against vancomycin-resistant VanA phenotype of Enterococcus faecium ATCC 51559 assessed as induction of cytoplasmic membrane permeabilization at 10 uM measured for 10 mins by propidium iodide uptake assay
Format: functional, organism-based
Activity calls are given as the source filed them. The rule behind the calls is not given here.
endpoint.label: Activity

chemical.smiles: CN[C@H](CC(C)C)C(=O)N[C@H]1C(=O)N[C@@H](CC(N)=O)C(=O)N[C@H]2C(=O)N[C@H]3C(=O)N[C@H](C(=O)N[C@H](C(=O)NCCCN(C)C)c4cc(O)cc(O)c4-c4cc3ccc4O)[C@H](O)c3ccc(c(Cl)c3)Oc3cc2cc(c3O[C@@H]2O[C@H](CO)[C@@H](O)[C@H](O)[C@H]2O[C@H]2C[C@](C)(N)[C@H](O)[C@H](C)O2)Oc2ccc(cc2Cl)[C@H]1O
endpoint.label: Activity
recorded.value: inactive

chemical.smiles: CCCC[N+](C)(C)CCCNC(=O)[C@H]1NC(=O)[C@H]2NC(=O)[C@H](NC(=O)[C@@H]3NC(=O)[C@H](CC(N)=O)NC(=O)[C@H](NC(=O)[C@@H](CC(C)C)NC)[C@H](O)c4ccc(c(Cl)c4)Oc4cc3cc(c4O[C@@H]3O[C@H](CO)[C@@H](O)[C@H](O)[C@H]3O[C@H]3C[C@](C)(N)[C@H](O)[C@H](C)O3)Oc3ccc(cc3Cl)[C@H]2O)c2ccc(O)c(c2)-c2c(O)cc(O)cc21
endpoint.label: Activity
recorded.value: inactive

====

System: Enterococcus faecium
assay.protocol: Antibacterial activity against vancomycin-resistant VanA phenotype of Enterococcus faecium ATCC 51559 assessed as leakage of intracellular potassium ion at 10 uM measured for 10 mins by PBFI-AM dye-based spectrofluorometric analysis
Format: functional, organism-based
The source made the active and inactive calls. The calls are words filed in the database; no cut-off is given here.
Labels: true (1) = active, false (0) = inactive

chemical.smiles: CCCCCCCCCC[N+](C)(C)CCCNC(=O)[C@H]1NC(=O)[C@H]2NC(=O)[C@H](NC(=O)[C@@H]3NC(=O)[C@H](CC(N)=O)NC(=O)[C@H](NC(=O)[C@@H](CC(C)C)NC)[C@H](O)c4ccc(c(Cl)c4)Oc4cc3cc(c4O[C@@H]3O[C@H](CO)[C@@H](O)[C@H](O)[C@H]3O[C@H]3C[C@](C)(N)[C@H](O)[C@H](C)O3)Oc3ccc(cc3Cl)[C@H]2O)c2ccc(O)c(c2)-c2c(O)cc(O)cc21
category: true (1)
--
chemical.smiles: CCCCCCCCCCCCCCNCCCNC(=O)[C@H]1NC(=O)[C@H]2NC(=O)[C@H](NC(=O)[C@@H]3NC(=O)[C@H](CC(N)=O)NC(=O)[C@H](NC(=O)[C@@H](CC(C)C)NC)[C@H](O)c4ccc(c(Cl)c4)Oc4cc3cc(c4O[C@@H]3O[C@H](CO)[C@@H](O)[C@H](O)[C@H]3O[C@H]3C[C@](C)(N)[C@H](O)[C@H](C)O3)Oc3ccc(cc3Cl)[C@H]2O)c2ccc(O)c(c2)-c2c(O)cc(O)cc21
category: false (0)
--
chemical.smiles: CCCCCCCCCCCCCC[N+](C)(C)CCCNC(=O)[C@H]1NC(=O)[C@H]2NC(=O)[C@H](NC(=O)[C@@H]3NC(=O)[C@H](CC(N)=O)NC(=O)[C@H](NC(=O)[C@@H](CC(C)C)NC)[C@H](O)c4ccc(c(Cl)c4)Oc4cc3cc(c4O[C@@H]3O[C@H](CO)[C@@H](O)[C@H](O)[C@H]3O[C@H]3C[C@](C)(N)[C@H](O)[C@H](C)O3)Oc3ccc(cc3Cl)[C@H]2O)c2ccc(O)c(c2)-c2c(O)cc(O)cc21.O=C([O-])C(F)(F)F
category: true (1)

====

Tested on: Staphylococcus aureus
assay.protocol: Antibacterial activity against methicillin-resistant Staphylococcus aureus ATCC 33591 assessed as leakage of intracellular potassium ion at 10 uM measured for 10 mins by PBFI-AM dye-based spectrofluorometric analysis relative to control
Format: functional
Items are presented alongside their recorded Activity.

chemical.smiles: CN[C@H](CC(C)C)C(=O)N[C@H]1C(=O)N[C@@H](CC(N)=O)C(=O)N[C@H]2C(=O)N[C@H]3C(=O)N[C@H](C(=O)N[C@H](C(=O)O)c4cc(O)cc(O)c4-c4cc3ccc4O)[C@H](O)c3ccc(c(Cl)c3)Oc3cc2cc(c3O[C@@H]2O[C@H](CO)[C@@H](O)[C@H](O)[C@H]2O[C@H]2C[C@](C)(N)[C@H](O)[C@H](C)O2)Oc2ccc(cc2Cl)[C@H]1O
tested.on: Staphylococcus aureus
Activity: 100%

chemical.smiles: CCCCCCCCCCCCCCCCCC[N+](C)(C)CCCNC(=O)[C@H]1NC(=O)[C@H]2NC(=O)[C@H](NC(=O)[C@@H]3NC(=O)[C@H](CC(N)=O)NC(=O)[C@H](NC(=O)[C@@H](CC(C)C)NC)[C@H](O)c4ccc(c(Cl)c4)Oc4cc3cc(c4O[C@@H]3O[C@H](CO)[C@@H](O)[C@H](O)[C@H]3O[C@H]3C[C@](C)(N)[C@H](O)[C@H](C)O3)Oc3ccc(cc3Cl)[C@H]2O)c2ccc(O)c(c2)-c2c(O)cc(O)cc21.O=C([O-])C(F)(F)F
tested.on: Staphylococcus aureus
Activity: 99%

chemical.smiles: CCCCCCCC[N+](C)(C)CCCNC(=O)[C@H]1NC(=O)[C@H]2NC(=O)[C@H](NC(=O)[C@@H]3NC(=O)[C@H](CC(N)=O)NC(=O)[C@H](NC(=O)[C@@H](CC(C)C)NC)[C@H](O)c4ccc(c(Cl)c4)Oc4cc3cc(c4O[C@@H]3O[C@H](CO)[C@@H](O)[C@H](O)[C@H]3O[C@H]3C[C@](C)(N)[C@H](O)[C@H](C)O3)Oc3ccc(cc3Cl)[C@H]2O)c2ccc(O)c(c2)-c2c(O)cc(O)cc21.O=C([O-])C(F)(F)F
tested.on: Staphylococcus aureus
Activity: 43%

====

System: Enterococcus faecium
assay.protocol: Antibacterial activity against vancomycin-resistant VanA phenotype of Enterococcus faecium ATCC 51559 assessed as induction of membrane depolarization at 10 uM measured for 10 mins by DiSC3(5) dye-based spectrofluorometric analysis
Type: functional, organism-based
Active and inactive are the calls of the source. The calls are words filed in the database; no cut-off is given here.

chemical.smiles: CC[N+](C)(C)CCCNC(=O)[C@H]1NC(=O)[C@H]2NC(=O)[C@H](NC(=O)[C@@H]3NC(=O)[C@H](CC(N)=O)NC(=O)[C@H](NC(=O)[C@@H](CC(C)C)NC)[C@H](O)c4ccc(c(Cl)c4)Oc4cc3cc(c4O[C@@H]3O[C@H](CO)[C@@H](O)[C@H](O)[C@H]3O[C@H]3C[C@](C)(N)[C@H](O)[C@H](C)O3)Oc3ccc(cc3Cl)[C@H]2O)c2ccc(O)c(c2)-c2c(O)cc(O)cc21
tested.on: Enterococcus faecium
Activity: inactive
//
chemical.smiles: CN[C@H](CC(C)C)C(=O)N[C@H]1C(=O)N[C@@H](CC(N)=O)C(=O)N[C@H]2C(=O)N[C@H]3C(=O)N[C@H](C(=O)N[C@H](C(=O)O)c4cc(O)cc(O)c4-c4cc3ccc4O)[C@H](O)c3ccc(c(Cl)c3)Oc3cc2cc(c3O[C@@H]2O[C@H](CO)[C@@H](O)[C@H](O)[C@H]2O[C@H]2C[C@](C)(N)[C@H](O)[C@H](C)O2)Oc2ccc(cc2Cl)[C@H]1O
tested.on: Enterococcus faecium
Activity: inactive

Value source: ChEMBL document CHEMBL3259723
